system tested: Kv7.2/7.3 (Homo sapiens, UniProt O43525+O43526)
method summary: Kv7.2/3 assay (FLIPR potassium assay, agonist mode)
experimental context: Kv7.2/7.3 activation; HEK293 cells, human KCNQ2 and KCNQ3
Description: HEK293 cells were stably transfected with the appropriate ion channel cDNA(s) (human KCNQ2 and KCNQ3 genes). […] Cells were incubated at 37° C. overnight or until cells reached sufficient density in the wells (near confluent monolayer) to use in fluorescence assays. […] 5 μL of 5× concentrated test, vehicle, or control compounds solutions prepared in the stimulation buffer (K^+-free buffer with 5 mM TI^+) were added to each well and fluorescence recording was continued for 5 min. […]
Label Met when EC50 is strictly below 10 nM; at or above that, label Not met.

>>> class_assignment("O=C(NCc1cc(OCC(F)(F)F)ncn1)NC1CC2(CCC2)C1")
"Not met"
>>> class_assignment("O=C(NCc1cccc(C(F)(F)F)c1)NC1CC2(CCC2)C1")
"Not met"
>>> class_assignment("O=C(NCc1cccc(C2(C(F)(F)F)CC2)c1)NC1CC2(CCC2)C1")
"Met"
>>> class_assignment("C[C@H](NC(=O)NC1CC2(CCC2)C1)c1ccc(F)c(OCC(F)(F)F)c1 (single isomer, unassigned)")
"Met"
>>> class_assignment("O=C(NCc1cccc(C(F)(F)F)c1)NC1CC2(CC2)C1")
"Not met"
>>> class_assignment("Cc1nc(CNC(=O)NC2CC3(CCC3)C2)cc(OCC(F)(F)F)n1")
"Not met"
>>> class_assignment("C[C@H](NC(=O)NC1CC2(CCC2)C1)c1cccc(C(F)(F)F)c1 (single isomer, unassigned)")
"Not met"
>>> class_assignment("O=C(NCc1ccnc(OCC(F)(F)F)c1)NC1CC2(CCC2)C1")
"Met"
>>> class_assignment("O=C(NC1CC2(CC2)C1)N[C@@H](CO)c1cccc(C(F)(F)F)c1 (single isomer, unassigned)")
"Not met"
>>> class_assignment("O=C(NCc1ccnc(NCC(F)(F)F)c1)NC1CC2(CCC2)C1")
"Not met"
